# Species on record: Rattus norvegicus
# EXPERIMENT_NOTES: Open TG-GATES - Regimen: Daily Repeat
# Format: toxicity, organism-based, Sprague-Dawley
# Design: regimen Daily Repeat, gender Male, age 6 weeks
# CONDITIONS: in vivo, po, 300 mg/kg, […], tissue Plasma, route gavage, dose level Middle, time 28 day
For each record, write down the corresponding TP.
One number for each entry, in g/dL.

INSERT INTO results (structure_smiles, readout_kind, unit_label, quantitative_result) VALUES
  ('COC(=O)C1=C(C)NC(C)=C(C(=O)OC)C1c1ccccc1[N+](=O)[O-]', 'TP', 'g/dL', 6.1),
  ('CN/C(=N/CCSCc1nc[nH]c1C)NC#N', 'TP', 'g/dL', 5.8),
  ('CCOc1ccc(NC(C)=O)cc1', 'TP', 'g/dL', 6.2),
  ('O=C(OC[C@H]1O[C@@H](OC(=O)c2cc(O)c(O)c(OC(=O)c3cc(O)c(O)c(O)c3)c2)[C@H](OC(=O)c2cc(O)c(O)c(OC(=O)c3cc(O)c(O)c(O)c3)c2)[C@@H](OC(=O)c2cc(O)c(O)c(OC(=O)c3cc(O)c(O)c(O)c3)c2)[C@@H]1OC(=O)c1cc(O)c(O)c(OC(=O)c2cc(O)c(O)c(O)c2)c1)c1cc(O)c(O)c(OC(=O)c2cc(O)c(O)c(O)c2)c1', 'TP', 'g/dL', 6.2),
  ('CNC(=C[N+](=O)[O-])NCCSCc1ccc(CN(C)C)o1', 'TP', 'g/dL', 6.1);

Here's the next entry for you.
Given "Cc1nnc2n1-c1ccc(Cl)cc1C(c1ccccc1Cl)=NC2" , state its recorded TP.
6.2

====

# Species: Rattus norvegicus
# EXPERIMENT_NOTES: Open TG-GATES - Regimen: Daily Repeat
# Type: toxicity, organism-based, Sprague-Dawley
# Design: regimen Daily Repeat, gender Male, age 6 weeks
# CONDITIONS: in vivo, po, 0 mg/kg, […], tissue Plasma, route gavage, dose level Control, time 14 day
For each record, write down the corresponding Cl.
Give bare numbers, in meq/L.

Below, each entry is followed by its recorded Cl result.
INSERT INTO results (compound, quantitative_result) VALUES
  ('COC(=O)C1=C(C)NC(C)=C(C(=O)OC)C1c1ccccc1[N+](=O)[O-]', 105.6),
  ('CN/C(=N/CCSCc1nc[nH]c1C)NC#N', 102.6),
  ('CN(C)CCC(c1ccc(Cl)cc1)c1ccccn1 (stereo not given)', 106.4),
  ('Cc1nnc2n1-c1ccc(Cl)cc1C(c1ccccc1Cl)=NC2', 104.4);

Here's the next entry for you.
Given "CC(C)NNC(=O)c1ccncc1" , state its recorded Cl.
107.4

====

For each record, write down the corresponding Fbg.
# Species: Rattus norvegicus
# EXPERIMENT_NOTES: Open TG-GATES - Regimen: Daily Repeat
# Assay type: toxicity, organism-based, Sprague-Dawley
# Set-up: regimen Daily Repeat, gender Male, age 6 weeks
# CONDITIONS: in vivo, po, 100 mg/kg, […], tissue Blood, route gavage, dose level Low, time 7 day
Give bare numbers, in mg/dL.

INSERT INTO assay_data (structure_smiles, unit_label, quantitative_result) VALUES
  ('CCOc1ccc(NC(C)=O)cc1', 'mg/dL', 298.2),
  ('CNC(=C[N+](=O)[O-])NCCSCc1ccc(CN(C)C)o1', 'mg/dL', 233.2),
  ('O=C(OC[C@H]1O[C@@H](OC(=O)c2cc(O)c(O)c(OC(=O)c3cc(O)c(O)c(O)c3)c2)[C@H](OC(=O)c2cc(O)c(O)c(OC(=O)c3cc(O)c(O)c(O)c3)c2)[C@@H](OC(=O)c2cc(O)c(O)c(OC(=O)c3cc(O)c(O)c(O)c3)c2)[C@@H]1OC(=O)c1cc(O)c(O)c(OC(=O)c2cc(O)c(O)c(O)c2)c1)c1cc(O)c(O)c(OC(=O)c2cc(O)c(O)c(O)c2)c1', 'mg/dL', 221.6);

For each entry beneath this line, provide reported Fbg.
1. COC(=O)C1=C(C)NC(C)=C(C(=O)OC)C1c1ccccc1[N+](=O)[O-]
2. Cc1nnc2n1-c1ccc(Cl)cc1C(c1ccccc1Cl)=NC2
3. CN/C(=N/CCSCc1nc[nH]c1C)NC#N

[283.4, 251.8, 227.6]

====

For each record, write down the corresponding gamma-GTP.
# Organism: Rattus norvegicus
# EXPERIMENT_NOTES: Open TG-GATES - Regimen: Single
# Type: toxicity, organism-based, Sprague-Dawley
# Design: regimen Single, gender Male, age 6 weeks
# CONDITIONS: in vivo, po, 300 mg/kg, 3 h, tissue Plasma, route gavage, dose level Middle
Numbers only, in IU/L.

Below, each entry is followed by its recorded gamma-GTP result.
INSERT INTO results (structure_smiles, readout_kind, quantitative_result) VALUES
  ('CN/C(=N/CCSCc1nc[nH]c1C)NC#N', 'gamma-GTP', 1.4),
  ('CNC(=C[N+](=O)[O-])NCCSCc1ccc(CN(C)C)o1', 'gamma-GTP', 0.8),
  ('COC(=O)C1=C(C)NC(C)=C(C(=O)OC)C1c1ccccc1[N+](=O)[O-]', 'gamma-GTP', 1),
  ('Cc1nnc2n1-c1ccc(Cl)cc1C(c1ccccc1Cl)=NC2', 'gamma-GTP', 1.8);

Here's the next entry for you.
Given "O=C(OC[C@H]1O[C@@H](OC(=O)c2cc(O)c(O)c(OC(=O)c3cc(O)c(O)c(O)c3)c2)[C@H](OC(=O)c2cc(O)c(O)c(OC(=O)c3cc(O)c(O)c(O)c3)c2)[C@@H](OC(=O)c2cc(O)c(O)c(OC(=O)c3cc(O)c(O)c(O)c3)c2)[C@@H]1OC(=O)c1cc(O)c(O)c(OC(=O)c2cc(O)c(O)c(O)c2)c1)c1cc(O)c(O)c(OC(=O)c2cc(O)c(O)c(O)c2)c1" , state its recorded gamma-GTP.
1.2

====

# Species: Rattus norvegicus
# EXPERIMENT_NOTES: Open TG-GATES - Regimen: Single
# Format: toxicity, organism-based, Sprague-Dawley
# Parameters: regimen Single, gender Male, age 6 weeks
# CONDITIONS: in vivo, po, 0 mg/kg, 6 h, tissue Blood, route gavage, dose level Control
READOUT_KIND: Eos (%)
One number for each entry, in %.

INSERT INTO results (molecule, unit_label, quantitative_result) VALUES
  ('CN1C(=O)CCS(=O)(=O)C1c1ccc(Cl)cc1 (centres undefined)', '%', 1),
  ('CNC(=C[N+](=O)[O-])NCCSCc1ccc(CN(C)C)o1', '%', 1),
  ('COC(=O)C1=C(C)NC(C)=C(C(=O)OC)C1c1ccccc1[N+](=O)[O-]', '%', 1),
  ('O=C(OC[C@H]1O[C@@H](OC(=O)c2cc(O)c(O)c(OC(=O)c3cc(O)c(O)c(O)c3)c2)[C@H](OC(=O)c2cc(O)c(O)c(OC(=O)c3cc(O)c(O)c(O)c3)c2)[C@@H](OC(=O)c2cc(O)c(O)c(OC(=O)c3cc(O)c(O)c(O)c3)c2)[C@@H]1OC(=O)c1cc(O)c(O)c(OC(=O)c2cc(O)c(O)c(O)c2)c1)c1cc(O)c(O)c(OC(=O)c2cc(O)c(O)c(O)c2)c1', '%', 0.8);

For each entry beneath this line, provide reported Eos.
1. CS(=O)(=O)O.Cc1ccc(NC(=O)c2ccc(CN3CCN(C)CC3)cc2)cc1Nc1nccc(-c2cccnc2)n1 [IMATINIB MESYLATE]
2. CC(C)NNC(=O)c1ccncc1
3. Nc1c2c(nc3ccccc13)CCCC2
4. CCCc1cc(=O)[nH]c(=S)[nH]1
5. NC1=NC(=O)C(c2ccccc2)O1 (centres undefined)
6. CN(C)CCC(c1ccc(Cl)cc1)c1ccccn1 (centres undefined)
7. Cc1nnc2n1-c1ccc(Cl)cc1C(c1ccccc1Cl)=NC2

0.4
0.8
0.8
0
1
0.6
0.8

====

# Organism: Rattus norvegicus
# EXPERIMENT_NOTES: Open TG-GATES - Regimen: Single
# Format: toxicity, organism-based, Sprague-Dawley
# Parameters: regimen Single, gender Male, age 6 weeks
# CONDITIONS: in vivo, po, 0 mg/kg, 9 h, tissue Plasma, route gavage, dose level Control
READOUT_KIND: K (meq/L)
Numbers only, in meq/L.

INSERT INTO results (compound, quantitative_result) VALUES
  ('CCOc1ccc(NC(C)=O)cc1', 4),
  ('Nc1c2c(nc3ccccc13)CCCC2', 4.2);

For each entry beneath this line, provide reported K.
1. COC(=O)C1=C(C)NC(C)=C(C(=O)OC)C1c1ccccc1[N+](=O)[O-]
2. NC1=NC(=O)C(c2ccccc2)O1 (configuration not stated)
3. CN1C(=O)CCS(=O)(=O)C1c1ccc(Cl)cc1 (configuration not stated)
4. CNC(=C[N+](=O)[O-])NCCSCc1ccc(CN(C)C)o1
5. CC(C)NNC(=O)c1ccncc1

1. 3.7
2. 3.8
3. 3.8
4. 3.9
5. 4
